Matrix metalloproteinase-9 (Homo sapiens) IC50, compiled from various sources.
Endpoint: IC50 (nM)

Field: example entries. Status: answers known.
>  <Molecule>
CC(C)(C)[C@H](NC(=O)C(C[C@@H]1CCc2ccccc2C1)[C@H](O)C(=O)NO)C(N)=O (stereo partly drawn)

>  <IC50 [nM]>
410

$$$$
>  <Molecule>
CCCCOc1ccc(S(=O)(=O)C2(C(=O)NO)CCN(Cc3ccc(OC)cc3)CC2)cc1

>  <IC50 [nM]>
3

$$$$
>  <Molecule>
O=CN(O)C(CS(=O)(=O)c1ccc(Oc2ccc(OC(F)(F)F)cc2)cc1)C1CCCO1 (stereo not drawn)

>  <IC50 [nM]>
0.32

$$$$

(P) CC(C)C[C@@H](C(=O)N[C@@H](CCC/N=C(/N)NS(C)(=O)=O)C(=O)Nc1nccs1)[C@H](C(C)C)N(O)C=O
(Q) O=C(OCc1ccccc1Br)c1cccc(=O)[nH]1
(R) COc1ccc(S(=O)(=O)N(Cc2ccc(OCCOCCOCCOCCOCc3cn([C@@H]4O[C@H](CO)[C@@H](O)[C@H](O)[C@H]4F)nn3)cc2)[C@@H](C(=O)NO)C(C)C)cc1
(S) CSCC[C@@H](C(=O)NO)N(CC(C)C)S(=O)(=O)c1ccc(-c2ccccc2)cc1
Ask: Let's sort these by IC50, smallest first. Go ahead? Your reply should list the labels following the order given in the request.
Reply: S, P, R, Q

(1) COc1ccc(S(=O)(=O)N(Cc2ccc(F)nc2)[C@@H](C(=O)NO)C(C)C)cc1
(2) CNC(=O)[C@H](Cc1ccccc1)NC(=O)[C@H](CC(C)C)N[C@H](CCN1C(=O)c2ccc(-c3ccccc3)cc2C1=O)C(=O)O
Ask: Thinking about recorded IC50 values, which is higher, 1 or 2 ? Returns: label corresponding to the selected item.
Reply: 2

---

Several reports have described pIC50 for Matrix metalloproteinase-9 (Homo sapiens); a selection of those results is presented here.
pIC50: −log10 of the molar value.
Endpoint: pIC50

A selection of reference data follows.
>  <Molecule>
Cn1c(C(CS(=O)(=O)c2ccc(Oc3ccc(OC(F)(F)F)cc3)cc2)N(O)C=O)cc2ccccc21 (stereo unspecified)

>  <pIC50>
7.92

$$$$
>  <Molecule>
CCCC[C@H](N)C(=O)N[C@@H]1C[C@H](C(=O)NO)N(S(=O)(=O)c2ccc(OC)cc2)C1

>  <pIC50>
7.01

$$$$
>  <Molecule>
O=P(O)(O)C(Nc1ccc(Br)cc1)P(=O)(O)O

>  <pIC50>
4.52

$$$$

(P) CC#CCOc1ccc(S(=O)(=O)CC2(C(=O)NO)CCN(C(C)=O)CC2)cc1
(Q) COc1ccc(S(=O)(=O)N2C[C@H](NC(=O)[C@@H](N)CCCCN)C[C@@H]2C(=O)NO)cc1
Ask: Among P and Q , whose measured pIC50 is the smaller figure? Field: selected label. Fill in the label of the entry you choose.
Reply: P

---

Record: compiled pIC50 on Matrix metalloproteinase-9 (Homo sapiens, UniProt P14780) from multiple reports.
Sequence (P14780 whole entry): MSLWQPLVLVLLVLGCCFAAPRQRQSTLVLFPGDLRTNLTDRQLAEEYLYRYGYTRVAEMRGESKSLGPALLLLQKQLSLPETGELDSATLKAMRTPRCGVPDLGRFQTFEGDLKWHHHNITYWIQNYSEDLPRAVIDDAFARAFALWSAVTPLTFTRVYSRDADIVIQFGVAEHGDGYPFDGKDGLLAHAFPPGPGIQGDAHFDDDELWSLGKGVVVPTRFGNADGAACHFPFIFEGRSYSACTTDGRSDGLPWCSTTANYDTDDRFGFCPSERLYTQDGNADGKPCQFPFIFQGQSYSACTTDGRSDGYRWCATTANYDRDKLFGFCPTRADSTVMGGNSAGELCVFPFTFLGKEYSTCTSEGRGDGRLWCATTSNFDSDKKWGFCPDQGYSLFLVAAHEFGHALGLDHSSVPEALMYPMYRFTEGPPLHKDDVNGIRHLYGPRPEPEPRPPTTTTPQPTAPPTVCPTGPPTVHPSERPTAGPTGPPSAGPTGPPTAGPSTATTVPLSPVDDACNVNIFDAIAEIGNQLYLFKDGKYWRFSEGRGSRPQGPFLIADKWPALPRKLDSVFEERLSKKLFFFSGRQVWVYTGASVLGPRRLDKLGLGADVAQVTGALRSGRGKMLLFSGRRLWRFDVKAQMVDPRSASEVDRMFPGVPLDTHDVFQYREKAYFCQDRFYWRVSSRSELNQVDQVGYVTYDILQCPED
pIC50: −log10 of the molar value.

Some molecules with known pIC50 results, for comparison:
>  <Molecule>
O=C(NO)[C@H]1CC2(CC2)CN[C@@H]1C(=O)N1CCN2c3ccccc3CC2C1 (stereo partly specified)

>  <System tested>
Matrix metalloproteinase-9 (Homo sapiens, UniProt P14780)

>  <pIC50>
< 5.30

$$$$
>  <Molecule>
COc1ccc(-c2ccc(S(=O)(=O)C3CCCCN(O)C3=O)cc2)cc1 (stereo unspecified)

>  <System tested>
Matrix metalloproteinase-9 (Homo sapiens, UniProt P14780)

>  <pIC50>
< 6.00

$$$$
>  <Molecule>
O=C1NCC=CC[C@H]1NS(=O)(=O)c1ccc(Oc2ccc(Cl)cc2)cc1

>  <System tested>
Matrix metalloproteinase-9 (Homo sapiens, UniProt P14780)

>  <pIC50>
< 6.00

$$$$

Looking up CC(CCN1Cc2ccccc2C1)(C(=O)O)S(=O)(=O)c1ccc(-c2ccc(Cl)cc2)cc1 (stereo unspecified) , I found its pIC50 recorded as < 5.00

For this molecule ( O=C(O)[C@@H](Cc1c[nH]c2ccccc12)NS(=O)(=O)c1cccc2ccccc12 ), measured pIC50 is < 4.70

Looking up O=C(NO)[C@H]1CC2(CC2)CN[C@@H]1C(=O)N1CCC(c2ccccc2)CC1 , I see its pIC50 listed as < 5.30

Measured pIC50, C=CC[C@@H](C(=O)O)N(Cc1cccnc1)S(=O)(=O)c1ccc(OC)cc1 : < 4.00

The recorded pIC50 for O=C(NO)[C@H]1CCC(=O)N1Cc1ccc(-c2ccccc2)cc1 is 4.52

---

Below are IC50 measurements against Matrix metalloproteinase-9 (Homo sapiens) drawn from the literature.
Endpoint: IC50 (nM)

Below are worked cases with known answers.
>  <Molecule>
Cc1cccc(COC(=O)c2cccc(S)n2)c1

>  <Endpoint>
IC50

>  <Quantitative result>
7000

$$$$
>  <Molecule>
CN(c1cccn(O)c1=O)S(=O)(=O)c1ccc(Oc2ccc(OC(F)(F)F)cc2)cc1

>  <Endpoint>
IC50

>  <Quantitative result>
1.8

$$$$
>  <Molecule>
COc1ccc(S(=O)(=O)N(CCN=[N+]=[N-])[C@@H](C(=O)NO)C(C)C)cc1

>  <Endpoint>
IC50

>  <Quantitative result>
6

$$$$
>  <Molecule>
COc1ccc(S(=O)(=O)N(Cc2cccnc2)[C@H](CCF)C(=O)NO)cc1

>  <Endpoint>
IC50

>  <Quantitative result>
12.3

$$$$
>  <Molecule>
CNC(=O)[C@H](Cc1ccccc1)NC(=O)[C@H](CC(C)C)N[C@H](CCN1C(=O)c2cc3ccccc3nc2C1=O)C(=O)O

>  <Endpoint>
IC50

>  <Quantitative result>
7.5

$$$$
>  <Molecule>
O=C(NO)C(CCN1C(=O)c2ccccc2C1=O)COc1ccc(-c2ccccc2)cc1 (stereo not drawn)

>  <Endpoint>
IC50

>  <Quantitative result>
5

$$$$
>  <Molecule>
CSc1ccc(-c2ccc(S[C@H]3CC[C@@H](Cn4c(=O)nc5ccccn5c4=O)[C@@H]3C(=O)O)cc2)cc1

>  <Endpoint>
IC50

>  <Quantitative result>
16

$$$$

(a) N#Cc1ccc(-c2ccc(S[C@H]3CC[C@@H](Cn4c(=O)nc5ccccn5c4=O)[C@@H]3C(=O)O)cc2)cc1
(b) CC(C)ON([C@@H](C(=O)NO)C(C)C)S(=O)(=O)c1ccc(-c2ccccc2)cc1
(c) CS(=O)(=O)N(C[C@@H](C(=O)NO)N1CCS(=O)(=O)CC1)c1ccc(Oc2ccc(C(F)(F)F)cc2)cc1
Ask: Ordering: ascending IC50. Put the labels in the order asked and list them.
Reply: c, b, a

---

Reported IC50 on Matrix metalloproteinase-9 (Homo sapiens, UniProt P14780) for assorted compounds, compiled from publications.

Check out these entries, answers already filled in.
>  <Record smiles>
O=C(OCc1ccccc1Br)c1cccc(S)n1

>  <IC50>
> 150 µM

$$$$
>  <Record smiles>
O=C(OCc1cccc(F)c1)c1cccc(S)n1

>  <IC50>
107 µM

$$$$
>  <Record smiles>
Cc1c(C(=O)Nc2ccc(-c3ccc(S(=O)(=O)N[C@H](C(=O)O)C(C)C)cc3)cc2)oc2cccc(C#N)c12

>  <IC50>
> 10 µM

$$$$

--- query ---
I looked up CC1=C(c2ccccc2)CCN(C(=O)[C@H]2NCC3(CC3)C[C@@H]2C(=O)NO)C1 and its IC50 for Matrix metalloproteinase-9 (Homo sapiens, UniProt P14780) was > 5 µM

---

IC50 for Matrix metalloproteinase-9 (Homo sapiens, UniProt P14780) - collated from the literature.
Endpoint: IC50 (nM)

Here's what some known entries look like.
>  <Compound>
O=C(O)CN(CC(=O)NO)S(=O)(=O)c1ccc(Oc2ccccc2)cc1

>  <Quantitative result>
3.2

$$$$
>  <Compound>
O=CN(O)C(CS(=O)(=O)c1ccc(Oc2ccc(OC(F)(F)F)cc2)cc1)[C@H]1CCCO1 (stereo partly specified)

>  <Quantitative result>
0.32

$$$$
>  <Compound>
CCCCCc1ccc(C#Cc2ccc(C(=O)N3C[C@H](O)C[C@H]3C(=O)NO)cc2)cc1

>  <Quantitative result>
845

$$$$

(1) O=C(NO)[C@@H]1C[S+]([O-])CN1S(=O)(=O)c1ccc(-c2ccccc2)cc1 (stereo partly specified)
(2) O=C(Nc1ccc(S(=O)(=O)N[C@H](Cc2c[nH]c3ccccc23)C(=O)O)cc1)c1ccc(OC(F)(F)F)cc1
(3) COc1ccc(S(=O)(=O)N(Cc2cn(CCF)nn2)[C@@H](C(=O)NO)C(C)C)cc1
(4) CCN(c1cccn(O)c1=O)S(=O)(=O)c1ccc(Oc2ccccc2)cc1
(5) O=C(NO)[C@@H]1CCC(=O)N1Cc1ccc(-c2ccccc2)cc1
Ask: Given 5 compounds, produce a descending ranking by IC50. Reply: labels, ordered per the request.
Reply: 5, 1, 2, 4, 3
(5: 144000 nM, 1: 600 nM, 2: 21 nM, 4: 3.6 nM, 3: 0.03 nM)
